- System: L1210 leukemia ip in BDF1 mice, survival T/C
- experiment_notes: NCI In Vivo Anticancer Drug Screen. Data for tumor model L1210 Leukemia (intraperitoneal) in B6D2F1 (BDF1) mice
- reported_conditions: endpoint: mean survival time; dose: 100.0 mg/kg/injection; schedule: Q01DX001 (ip); vehicle: saline with Tween-80; higher = longer survival
Inconclusive results and toxic doses are left out.
metric_name: T/C

QUERY: Could you share what T/C was measured for `CCCOC(=O)NCCSC(=O)OCCC` , tested on L1210 leukemia ip in BDF1 mice, survival T/C?
RESULT: 95 % of control

QUERY: Could you do the same for CCCCC(C)(O)c1cc(OC)cc(OC)c1 (stereo unspecified) , please?
RESULT: 104 % of control

QUERY: One more molecule: `Cc1ccc(C)c2c(CC(=O)O)c[nH]c12`
RESULT: 100 % of control

QUERY: Would you kindly repeat that for `Cc1ccc(S(=O)(=O)N(CCCc2c(C)nc(N)nc2NCCCc2ccccc2)c2ccccc2)cc1` ?
RESULT: 98 % of control

QUERY: Same question, O=C(OCC(O)C1OC(COC(=O)c2ccccc2)C1O)c1ccccc1 (stereo unspecified) this time
RESULT: 101 % of control

QUERY: Again, but for `c1ccc(N/N=C(\c2ccccc2)c2ccccn2)cc1`
RESULT: 105 % of control

* * *

- Test system: L1210 leukemia ip in BDF1 mice, survival T/C
- experiment_notes: NCI In Vivo Anticancer Drug Screen. Data for tumor model L1210 Leukemia (intraperitoneal) in B6D2F1 (BDF1) mice
- reported_conditions: endpoint: mean survival time; dose: 100.0 mg/kg/injection; schedule: Q01DX009 (ip); vehicle: Klucel (hydroxypropylcellulose) (HPC); higher = longer survival
Inconclusive results and toxic doses are left out.
I'd appreciate it if you could supply T/C values for the items below.

QUERY: For `CCCOc1ccc(-c2nc(-c3ccc(N=Cc4ccc(N(CCOS(C)(=O)=O)CCOS(C)(=O)=O)cc4C)cc3)cs2)cc1` , what is its reported T/C?
RESULT: 94 % of control

QUERY: Also COC12CC(COC(=O)c3cncc(Br)c3)CN(C)C1Cc1cn(C)c3cccc2c13 (stereo unspecified) , if possible.
RESULT: 100 % of control

QUERY: Try the molecule `CC(C)(C)C(=O)Oc1ccc(C(C)(C)C)cc1`
RESULT: 101 % of control

QUERY: `COc1cc([N+](=O)[O-])ccc1NC(=O)c1c(Br)c(Br)c(Br)c(Br)c1C(=O)O` ?
RESULT: 101 % of control

QUERY: Input `O=c1cc(-c2ccccc2)cc(-c2ccccc2)o1`
RESULT: 102 % of control

QUERY: Follow-up entry: O=[N+]([O-])c1ccc2c(c1)C(C(Cl)(Cl)Cl)OC(C(Cl)(Cl)Cl)O2 (stereo unspecified)
RESULT: 95 % of control

QUERY: Another molecule to check: `O=C(Nc1ccc(F)cc1)C(c1ccccc1)c1ccccc1`
RESULT: 108 % of control

QUERY: Then this molecule: `CCCCCCCCCC(=O)N/N=C/c1ccncc1`
RESULT: 89 % of control

QUERY: Would you mind doing `CN(C)c1ccc(C(=C(C#N)C#N)c2ccc(N(C)C)cc2)cc1` as well?
RESULT: 98 % of control

QUERY: Subsequent entry: `O=C1NN(c2ccccc2)CCO1`
RESULT: 100 % of control

QUERY: Another molecule to check: `Cc1cc(OC(=O)Nc2cccc(Cl)c2)ccc1[N+](=O)[O-]`
RESULT: 101 % of control

Where do these numbers come from? They come from PubChem BioAssay AID248.
